assay: Oral bioavailability in the dog; conditions: in vivo, estimated
readoutLabel: bioavailability (%)
Enter your answer as a number in %; do not include the unit.

Give its bioavailability value. Item: `Cc1ccc(C(=O)NC2CC2)cc1-n1ncc(C(=O)c2cccc(C#N)c2)c1N`
87

----------
test: Oral bioavailability in the monkey; settings: in vivo, estimated
readoutLabel: bioavailability (%)
Enter your answer as a number in %; do not include the unit.

Give its bioavailability value. Item: `Cc1ccc(C(=O)NC2CC2)cc1-n1ncc(C(=O)c2cccc(C#N)c2)c1N`
90
